Measured AC50 on Sodium-dependent dopamine transporter (Homo sapiens, UniProt Q01959) follows.
Sequence (Q01959 whole entry): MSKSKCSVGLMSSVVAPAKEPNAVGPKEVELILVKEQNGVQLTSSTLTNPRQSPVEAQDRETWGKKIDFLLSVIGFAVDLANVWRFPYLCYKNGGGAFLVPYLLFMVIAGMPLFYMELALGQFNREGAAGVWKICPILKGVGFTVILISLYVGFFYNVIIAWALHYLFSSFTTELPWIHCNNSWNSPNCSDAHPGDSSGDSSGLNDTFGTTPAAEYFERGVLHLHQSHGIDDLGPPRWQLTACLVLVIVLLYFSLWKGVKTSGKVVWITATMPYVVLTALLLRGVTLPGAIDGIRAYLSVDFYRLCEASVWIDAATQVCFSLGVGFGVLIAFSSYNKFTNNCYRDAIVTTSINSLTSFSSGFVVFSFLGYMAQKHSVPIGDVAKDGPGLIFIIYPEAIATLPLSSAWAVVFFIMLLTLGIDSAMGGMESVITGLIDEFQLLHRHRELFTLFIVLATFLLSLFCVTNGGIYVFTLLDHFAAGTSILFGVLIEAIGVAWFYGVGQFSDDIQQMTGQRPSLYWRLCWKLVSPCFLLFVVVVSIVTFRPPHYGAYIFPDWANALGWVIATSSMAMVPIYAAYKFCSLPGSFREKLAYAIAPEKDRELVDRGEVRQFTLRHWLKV

compound: O=C(O[C@H]1C[C@H]2CC[C@@H](C1)[N+]21CCCC1)C(O)(c1ccccc1)c1ccccc1
AC50: > 30 µM
//
compound: Cc1cccc(C(C)c2cnc[nH]2)c1C (stereo not drawn)
AC50: > 30 µM
//
compound: CCc1c(Cl)c(O)c(Cl)c(O)c1C(=O)O[C@H]1[C@H](O)[C@H](OC)[C@H](OC/C2=C\C=C\C[C@H](O)/C(C)=C/[C@H](CC)[C@@H](O[C@@H]3OC(C)(C)[C@@H](OC(=O)C(C)C)[C@H](O)[C@@H]3O)/C(C)=C/C(C)=C/C[C@@H]([C@@H](C)O)OC2=O)O[C@@H]1C
AC50: > 30 µM

---

- target or test system: Melanocortin receptor 3 (Homo sapiens, UniProt P41968); note: assay procedure not described here
- Sequence (P41968 whole entry): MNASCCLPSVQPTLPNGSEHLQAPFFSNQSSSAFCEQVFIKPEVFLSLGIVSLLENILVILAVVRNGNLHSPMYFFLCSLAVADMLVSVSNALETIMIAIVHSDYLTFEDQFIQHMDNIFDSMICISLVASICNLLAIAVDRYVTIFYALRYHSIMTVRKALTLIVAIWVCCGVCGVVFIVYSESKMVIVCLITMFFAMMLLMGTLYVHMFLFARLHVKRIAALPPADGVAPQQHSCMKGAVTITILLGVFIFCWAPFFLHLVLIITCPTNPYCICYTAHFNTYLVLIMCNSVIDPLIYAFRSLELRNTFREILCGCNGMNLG
This listing pairs compounds with measured AC50.

compound: CC(C)Cn1cnc2c(N)nc3ccccc3c21
target or test system: Melanocortin receptor 3 (Homo sapiens, UniProt P41968); note: assay procedure not described here
AC50: > 30 µM
--
compound: CC(C)(C)NCC(O)COc1cccc2c1CCC(=O)N2 (stereo unspecified)
target or test system: Melanocortin receptor 3 (Homo sapiens, UniProt P41968); note: assay procedure not described here
AC50: > 10 µM
--
compound: NCC(=O)CCC(=O)O
target or test system: Melanocortin receptor 3 (Homo sapiens, UniProt P41968); note: assay procedure not described here
AC50: > 30 µM
--
compound: CCN1CCN(C(=O)N[C@@H](C(=O)N[C@@H]2C(=O)N3C(C(=O)O)=C(CSc4nnnn4C)CS[C@H]23)c2ccc(O)cc2)C(=O)C1=O
target or test system: Melanocortin receptor 3 (Homo sapiens, UniProt P41968); note: assay procedure not described here
AC50: > 30 µM
--
compound: Fc1ccc(C(c2ccccc2)(c2ccccc2F)n2ccnc2)cc1 (stereo unspecified)
target or test system: Melanocortin receptor 3 (Homo sapiens, UniProt P41968); note: assay procedure not described here
AC50: > 30 µM
--
compound: CN(C)CCC=C1c2ccccc2C(C)(C)c2ccccc21
target or test system: Melanocortin receptor 3 (Homo sapiens, UniProt P41968); note: assay procedure not described here
AC50: 21 µM
--
compound: COc1ccc(C(=O)Nc2ccccc2CCC2CCCCN2C)cc1 (stereo unspecified) [ENCAINIDE]
target or test system: Melanocortin receptor 3 (Homo sapiens, UniProt P41968); note: assay procedure not described here
AC50: > 30 µM
--
compound: COc1cc2nc(N(C)CCCNC(=O)C3CCCO3)nc(N)c2cc1OC (stereo unspecified)
target or test system: Melanocortin receptor 3 (Homo sapiens, UniProt P41968); note: assay procedure not described here
AC50: > 30 µM
--
compound: C=CCN1C[C@H](C(=O)N(CCCN(C)C)C(=O)NCC)C[C@@H]2c3cccc4[nH]cc(c34)C[C@H]21
target or test system: Melanocortin receptor 3 (Homo sapiens, UniProt P41968); note: assay procedure not described here
AC50: > 10 µM
--
compound: Brc1c(NC2=NCCN2)ccc2nccnc12
target or test system: Melanocortin receptor 3 (Homo sapiens, UniProt P41968); note: assay procedure not described here
AC50: > 30 µM
--
compound: C[C@@H](O)[C@H]1C(=O)N2C(C(=O)O)=C(S[C@@H]3CN[C@H](C(=O)N(C)C)C3)[C@H](C)[C@H]12
target or test system: Melanocortin receptor 3 (Homo sapiens, UniProt P41968); note: assay procedure not described here
AC50: > 300 µM
--
compound: COc1ccc(CCN(C)CCCC(C#N)(c2cc(OC)c(OC)c(OC)c2)C(C)C)cc1OC (stereo unspecified)
target or test system: Melanocortin receptor 3 (Homo sapiens, UniProt P41968); note: assay procedure not described here
AC50: > 30 µM
--
compound: CC(C)C[C@H]1C(=O)N2CCC[C@H]2[C@]2(O)O[C@](NC(=O)[C@@H]3C=C4c5cccc6[nH]c(Br)c(c56)C[C@H]4N(C)C3)(C(C)C)C(=O)N12
target or test system: Melanocortin receptor 3 (Homo sapiens, UniProt P41968); note: assay procedure not described here
AC50: > 30 µM
--
compound: CCOC(=O)[C@H](CCc1ccccc1)N[C@@H](C)C(=O)N1[C@H](C(=O)O)C[C@@H]2CCC[C@@H]21
target or test system: Melanocortin receptor 3 (Homo sapiens, UniProt P41968); note: assay procedure not described here
AC50: > 30 µM
--
compound: CN1C(=O)CCS(=O)(=O)C1c1ccc(Cl)cc1 (stereo unspecified)
target or test system: Melanocortin receptor 3 (Homo sapiens, UniProt P41968); note: assay procedure not described here
AC50: > 10 µM
--
compound: Cc1cccc(Nc2ccccc2C(=O)O)c1C
target or test system: Melanocortin receptor 3 (Homo sapiens, UniProt P41968); note: assay procedure not described here
AC50: > 10 µM
--
compound: C[C@]1(O)CC[C@H]2[C@@H]3CCC4=CC(=O)CC[C@]4(C)[C@@]3(F)[C@@H](O)C[C@@]21C
target or test system: Melanocortin receptor 3 (Homo sapiens, UniProt P41968); note: assay procedure not described here
AC50: > 10 µM
--
compound: CC(C)OC(=O)CCC/C=C\C[C@@H]1[C@@H](CC[C@@H](O)CCc2ccccc2)[C@H](O)C[C@@H]1O
target or test system: Melanocortin receptor 3 (Homo sapiens, UniProt P41968); note: assay procedure not described here
AC50: > 30 µM
--
compound: COc1cc(NC(C)CCCN)c2ncccc2c1 (stereo unspecified)
target or test system: Melanocortin receptor 3 (Homo sapiens, UniProt P41968); note: assay procedure not described here
AC50: > 30 µM
--
compound: CNC(C)CCC=C(C)C (stereo unspecified)
target or test system: Melanocortin receptor 3 (Homo sapiens, UniProt P41968); note: assay procedure not described here
AC50: > 30 µM
--
compound: OC(CNCC(O)C1CCc2cc(F)ccc2O1)C1CCc2cc(F)ccc2O1 (stereo unspecified)
target or test system: Melanocortin receptor 3 (Homo sapiens, UniProt P41968); note: assay procedure not described here
AC50: 8.7 µM
--
compound: N#Cc1ccc([C@H]2CCc3cncn32)c(F)c1
target or test system: Melanocortin receptor 3 (Homo sapiens, UniProt P41968); note: assay procedure not described here
AC50: > 10 µM
--
compound: CC(=O)NCCCS(=O)(=O)O [ACAMPROSATE]
target or test system: Melanocortin receptor 3 (Homo sapiens, UniProt P41968); note: assay procedure not described here
AC50: > 30 µM
--
compound: O=C(O[C@H]1C[C@H]2CC[C@@H](C1)[N+]21CCCC1)C(O)(c1ccccc1)c1ccccc1
target or test system: Melanocortin receptor 3 (Homo sapiens, UniProt P41968); note: assay procedure not described here
AC50: > 30 µM
--
compound: Cc1cc(C(C)(C)C)c(O)c(C)c1CC1=NCCN1
target or test system: Melanocortin receptor 3 (Homo sapiens, UniProt P41968); note: assay procedure not described here
AC50: > 30 µM
--
compound: CCCCN1C[C@H](O)[C@@H](O)[C@H](O)[C@H]1CO
target or test system: Melanocortin receptor 3 (Homo sapiens, UniProt P41968); note: assay procedure not described here
AC50: > 30 µM

---

- target or test system: Prostaglandin G/H synthase 1 (Homo sapiens, UniProt P23219); note: assay procedure not described here
- Sequence (P23219 whole entry): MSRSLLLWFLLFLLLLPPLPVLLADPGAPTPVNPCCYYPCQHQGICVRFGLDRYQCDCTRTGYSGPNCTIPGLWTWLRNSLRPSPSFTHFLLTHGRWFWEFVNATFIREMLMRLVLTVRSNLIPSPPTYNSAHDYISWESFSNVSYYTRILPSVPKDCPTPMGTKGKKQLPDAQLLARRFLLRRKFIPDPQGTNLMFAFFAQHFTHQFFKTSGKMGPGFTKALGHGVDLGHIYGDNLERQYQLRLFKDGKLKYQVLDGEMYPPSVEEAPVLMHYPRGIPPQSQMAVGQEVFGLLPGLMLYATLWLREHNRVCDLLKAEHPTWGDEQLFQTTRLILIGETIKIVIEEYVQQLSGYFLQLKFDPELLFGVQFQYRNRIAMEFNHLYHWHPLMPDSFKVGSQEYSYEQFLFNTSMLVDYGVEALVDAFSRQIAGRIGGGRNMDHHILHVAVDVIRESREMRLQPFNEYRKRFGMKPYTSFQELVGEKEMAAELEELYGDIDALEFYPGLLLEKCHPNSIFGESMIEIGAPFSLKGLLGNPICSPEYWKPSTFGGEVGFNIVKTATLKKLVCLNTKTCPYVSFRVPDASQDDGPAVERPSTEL
- Type: functional
test readout: AC50

compound: C[N+](C)(C)CCO
observed value: > 30 µM

compound: CC(=O)Oc1ccc2c(c1)CC[C@@H]1[C@@H]2CC[C@]2(C)[C@@H](O)CC[C@@H]12 [ESTRADIOL ACETATE]
observed value: > 3 µM

compound: COc1ccccc1N1CCN(CC(O)COc2cccc3ccccc23)CC1 (configuration not stated)
observed value: > 30 µM

compound: CC(C)Nc1ncccn1
observed value: > 30 µM

compound: O=c1[nH]c(=O)n([C@H]2C[C@H](O)[C@@H](CO)O2)cc1F
observed value: > 30 µM

compound: N=c1ccn2c(n1)O[C@H]1[C@H](O)[C@@H](CO)O[C@H]12
observed value: > 30 µM

compound: CCN(CC)CCNc1ccc(CO)c2sc3ccccc3c(=O)c12
observed value: > 30 µM

compound: CC(CNC(=O)c1ccccc1)C(=O)OCC(=O)[C@@]12OC(C)(C)O[C@@H]1C[C@H]1[C@@H]3CCC4=CC(=O)C=C[C@]4(C)[C@@]3(F)[C@@H](O)C[C@@]12C (some centres not stated) [TRIAMCINOLONE BENETONIDE]
observed value: > 30 µM

compound: CC(C)COC(=O)OCN1C(=O)CN(CCN2CC(=O)N(COC(=O)OCC(C)C)C(=O)C2)CC1=O
observed value: 29.8 µM

compound: Nc1ccncc1N
observed value: > 30 µM

compound: O=C(OCC(O)CO)c1ccccc1Nc1ccnc2cc(Cl)ccc12 (configuration not stated)
observed value: 4.63 µM

compound: COC1=C(OC)C(=O)C(C/C=C(\C)CC/C=C(\C)CC/C=C(\C)CC/C=C(\C)CC/C=C(\C)CC/C=C(\C)CC/C=C(\C)CC/C=C(\C)CC/C=C(\C)CCC=C(C)C)=C(C)C1=O
observed value: > 30 µM

compound: CCC(CC)(CC(=O)Nc1cccc(/C=C/c2nc(C3CCC3)cs2)c1)C(=O)O
observed value: > 30 µM

compound: COCc1c(C(C)C)nc(C(C)C)c(/C=C/[C@@H](O)C[C@@H](O)CC(=O)O)c1-c1ccc(F)cc1
observed value: > 30 µM

compound: OC(CCN1CCCCC1)(c1ccccc1)c1ccccc1
observed value: > 30 µM

compound: CC[C@H]1CN2CC[C@H]1C[C@H]2[C@H](O)c1ccnc2ccc(OC)cc12 [HYDROQUININE]
observed value: > 30 µM

compound: CCOC(=O)/C=C1\SC(N2CCCCC2)C(=O)N1C (configuration not stated)
observed value: > 30 µM
